- Tgt: Phospholipase D2 (Homo sapiens)
- Sequence (O14939 whole entry): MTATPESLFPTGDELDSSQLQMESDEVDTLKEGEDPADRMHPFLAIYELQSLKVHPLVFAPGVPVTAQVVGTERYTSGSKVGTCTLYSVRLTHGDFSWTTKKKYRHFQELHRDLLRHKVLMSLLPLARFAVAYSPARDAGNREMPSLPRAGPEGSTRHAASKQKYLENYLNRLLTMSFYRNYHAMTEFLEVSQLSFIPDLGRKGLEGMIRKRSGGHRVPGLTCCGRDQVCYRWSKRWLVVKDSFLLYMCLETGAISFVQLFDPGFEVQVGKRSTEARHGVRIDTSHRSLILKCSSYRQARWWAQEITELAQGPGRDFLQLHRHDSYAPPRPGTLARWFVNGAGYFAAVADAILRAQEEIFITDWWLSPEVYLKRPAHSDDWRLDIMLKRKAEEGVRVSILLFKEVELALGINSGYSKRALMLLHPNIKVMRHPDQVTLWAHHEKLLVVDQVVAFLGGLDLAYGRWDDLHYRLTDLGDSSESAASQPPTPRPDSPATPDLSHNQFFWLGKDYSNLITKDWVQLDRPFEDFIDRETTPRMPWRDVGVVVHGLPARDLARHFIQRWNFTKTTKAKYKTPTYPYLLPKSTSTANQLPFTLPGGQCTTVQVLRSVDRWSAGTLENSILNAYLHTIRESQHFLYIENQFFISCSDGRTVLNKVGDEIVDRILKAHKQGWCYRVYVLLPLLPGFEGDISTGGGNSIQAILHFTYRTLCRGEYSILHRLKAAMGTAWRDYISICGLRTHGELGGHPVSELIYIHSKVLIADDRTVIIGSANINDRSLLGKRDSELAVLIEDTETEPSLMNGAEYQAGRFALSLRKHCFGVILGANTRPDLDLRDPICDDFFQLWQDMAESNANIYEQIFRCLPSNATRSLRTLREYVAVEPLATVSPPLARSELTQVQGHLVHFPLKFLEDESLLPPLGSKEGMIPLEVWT
- Assay Notes: Inhibition of GFP-tagged PLD2 in human HEK293 cells assessed as deuterated 1-butanol incorporation pretreated for 5 mins prior to substrate addition measured after 30 mins by mass spectrometry
pIC50: −log10 of the molar value.
Catalogue of compounds with associated pIC50

| Smiles Entry | pIC50 |
| --- | --- |
| C[C@H](CN1CCC2(CC1)C(=O)NCN2c1cccc(F)c1)NC(=O)c1ccc(F)cc1 | 5.97 |
| O=C(NCCN1CCC2(CC1)C(=O)NCN2c1cccc(F)c1)c1ccc(F)cc1 | 6.46 |
| O=C(NCCN1CCC2(CC1)C(=O)NCN2c1cccc(F)c1)c1ccc(Br)cc1 | 6.70 |
| C[C@@H](CN1CCC2(CC1)C(=O)NCN2c1cccc(F)c1)NC(=O)c1ccc(F)cc1 | 7.46 |
| C[C@@H](CN1CCC2(CC1)C(=O)NCN2c1cccc(F)c1)NC(=O)c1ccc(F)c(F)c1 | 6.92 |
| C[C@H](CN1CCC2(CC1)C(=O)NCN2c1cccc(F)c1)NC(=O)c1ccc(F)c(F)c1 | 5.46 |
| C[C@H](CN1CCC2(CC1)C(=O)NCN2c1cccc(F)c1)NC(=O)c1ccc(Br)cc1 | 6.10 |
